target: AF9-AF4 interaction (Homo sapiens); construct: cDNA for human AF9 AHD domain (475-568) and ENL AHD domain (489-559) was synthesized; made in house; host or cells: E. coli BL21(DE3); test: Alpha assay, AF9-AF4 interaction; type: binding; conditions: read-out: IC50, inhibition of AF9-AF4 interaction
Sequence (P42568 475-568): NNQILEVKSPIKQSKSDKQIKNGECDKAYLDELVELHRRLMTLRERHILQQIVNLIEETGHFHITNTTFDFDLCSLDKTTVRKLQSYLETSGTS
No end group written: not given here.
reported_property: IC50 (nM)
Answers are plain numbers, in nM.

Lab book: IC50 of NKLPVSIPLASVVLPSRAERARST [DOT1L] noted as 60

---

system: Panc-28 cells; assay: Antiproliferation assay (MTT); assay type: cell-based; settings: 14-day incubation, read-out: Cytotoxicity EC50
reported_property: EC50

Lab book: EC50 of CC(C)N(CCCNC(=O)Nc1ccc(C(C)(C)C)cc1)C[C@H]1O[C@@H](n2ccc3c(N)ncnc32)[C@H](O)[C@@H]1O [EPZ4777, reference compound] noted as > 50 µM
